Data provenance is patent US12318403B2.

- measured-on: human wild type STING (WT STING) (Homo sapiens, UniProt Q86WV6, H232R)
- Sequence (Q86WV6 whole entry H232R): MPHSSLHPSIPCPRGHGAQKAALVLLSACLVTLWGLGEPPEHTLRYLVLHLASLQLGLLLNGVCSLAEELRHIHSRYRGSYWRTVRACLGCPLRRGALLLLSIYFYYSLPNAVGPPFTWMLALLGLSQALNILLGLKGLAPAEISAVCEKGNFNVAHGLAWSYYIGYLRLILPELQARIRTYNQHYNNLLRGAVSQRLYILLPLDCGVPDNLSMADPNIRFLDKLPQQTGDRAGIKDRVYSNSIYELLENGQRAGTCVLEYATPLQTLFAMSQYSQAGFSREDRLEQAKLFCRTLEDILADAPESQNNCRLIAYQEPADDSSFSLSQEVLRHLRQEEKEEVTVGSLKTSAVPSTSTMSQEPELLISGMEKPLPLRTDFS
- assay-info: 293T WT STING standard reporter assay
- Assay type: cell-based
- condition-description: 293T WT STING EC50, 293T wtSTING-FL cells; standard reporter assay without digitonin; 7 hours; ISRE firefly luciferase
Listed here: items and their measured EC50.
Give just the numeric value; nM need not be written.

compound	measured-on	units-label	reading
CCCCCC(=O)Oc1ccc(CSP2(=O)CO[C@H]3[C@@H](F)[C@H](n4cnc5c(N)ncnc54)O[C@@H]3COP(=O)(O)O[C@@H]3[C@H](F)[C@@H](CO2)O[C@H]3n2cnc3c(=O)[nH]c(N)nc32)cc1 (single isomer, unassigned) [Compound 42a]	human wild type STING (WT STING) (Homo sapiens, UniProt Q86WV6, H232R)	nM	300

As a next step, examine the compound that follows.
Item CCCC(=O)Oc1ccc(CSP2(=O)CO[C@H]3[C@@H](F)[C@H](n4cnc5c(N)ncnc54)O[C@@H]3COP(=O)(O)O[C@@H]3[C@H](F)[C@@H](CO2)O[C@H]3n2cnc3c(=O)[nH]c(N)nc32)cc1 (single isomer, unassigned) [Compound 48b] with human wild type STING (WT STING) (Homo sapiens, UniProt Q86WV6, H232R) - EC50? 3400

###

- Test system: peripheral blood mononuclear cell (PBMC)
- assay-info: Peripheral blood mononuclear cell assay
- condition-description: read-out: PBMC EC50 TNF-α; compounds 1h, washed, 15 hour incubation; tumor necrosis factor-alpha level in medium; average of one to four donors
Each entry below carries its recorded EC50.
Please state the figure in nM; there is no need to write the unit.

I am curious: what EC50 value has been reported for CCCCCCCCCCCC(=O)OCSP1(=O)OC[C@H]2O[C@@H](n3cnc4c(N)ncnc43)[C@H](F)[C@@H]2OCP(=O)(O)OC[C@H]2O[C@@H](n3cnc4c(=O)[nH]c(N)nc43)[C@H](O1)[C@@H]2F (single isomer, unassigned) [Compound 57b] ? 1600

###

- Test system: peripheral blood mononuclear cell (PBMC)
- assay-info: Peripheral blood mononuclear cell assay
- condition-description: read-out: PBMC EC50 IFN-α; compounds 1h, washed, 15 hour incubation; interferon-alpha level in medium; average of one to four donors
Threshold 2000 nM: EC50 strictly smaller gives True, otherwise False.

Please indicate whether the reported EC50 of CCCCCCCCCCCC(=O)OCSP1(=O)OC[C@H]2O[C@@H](n3cnc4c(N)ncnc43)[C@H](F)[C@@H]2OCP(=O)(O)OC[C@H]2O[C@@H](n3cnc4c(=O)[nH]c(N)nc43)[C@H](O1)[C@@H]2F (single isomer, unassigned) [Compound 57b] is strictly below 2000 nM. True

Bench note: check whether CCCCCCCCCCCCOC(=O)OCSP1(=O)OC[C@H]2O[C@@H](n3cnc4c(N)ncnc43)[C@H](F)[C@@H]2OCP(=O)(O)OC[C@H]2O[C@@H](n3cnc4c(=O)[nH]c(N)nc43)[C@H](O1)[C@@H]2F (some centres unmarked) [Compound 59b] shows EC50 below 2000 nM True

Criterion: EC50 strictly below 2000 nM. Is it met by CCCCCCCCCCCCCC(=O)OCSP1(=O)OC[C@H]2O[C@@H](n3cnc4c(N)ncnc43)[C@H](F)[C@@H]2OCP(=O)(O)OC[C@H]2O[C@@H](n3cnc4c(=O)[nH]cnc43)[C@H](O1)[C@@H]2F (single isomer, unassigned) [Compound 68a] ? True

Please indicate whether the reported EC50 of CC(C)(C)C(=O)OCOP1(=O)CO[C@H]2[C@@H](F)[C@H](n3cnc4c(N)ncnc43)O[C@@H]2COP(=O)(OCOC(=O)C(C)(C)C)O[C@@H]2[C@H](F)[C@@H](CO1)O[C@H]2n1cnc2c(=O)[nH]cnc21 (single isomer, unassigned) [Compound 77a] is strictly below 2000 nM. False

Hello, is EC50 of the following compound strictly smaller than 2000 nM? CCCCCCCCCCCCOC(=O)OCSP1(=O)OC[C@H]2O[C@@H](n3cnc4c(N)ncnc43)[C@H](F)[C@@H]2OCP(=O)(O)OC[C@H]2O[C@@H](n3cnc4c(=O)[nH]cnc43)[C@H](O1)[C@@H]2F (some centres unmarked) [Compound 58b] True

Here's an entry: CC(C)OC(=O)OCOP1(=O)CO[C@H]2[C@@H](F)[C@H](n3cnc4c(N)ncnc43)O[C@@H]2COP(=O)(OCOC(=O)OC(C)C)O[C@@H]2[C@H](F)[C@@H](CO1)O[C@H]2n1cnc2c(N)ncnc21 (single isomer, unassigned) [Compound 80c] . Is its EC50 below 2000 nM? False

is_below(EC50, 2000 nM) for Nc1nc2c(ncn2[C@@H]2O[C@@H]3COP(=O)(S)CO[C@H]4[C@@H](F)[C@H](n5cnc6c(N)ncnc65)O[C@@H]4COP(=O)(S)O[C@@H]2[C@@H]3F)c(=O)[nH]1 (single isomer, unassigned) [Compound 17c] ? False

hey, is EC50 for CCCCCCCCCCCCCCOC(=O)OCSP1(=O)OC[C@H]2O[C@@H](n3cnc4c(N)ncnc43)[C@H](F)[C@@H]2OCP(=O)(O)OC[C@H]2O[C@@H](n3cnc4c(=O)[nH]cnc43)[C@H](O1)[C@@H]2F (some centres unmarked) [Compound 72b] lower than 2000 nM or not? True

###

- System: peripheral blood mononuclear cell (PBMC)
- assay-info: Peripheral blood mononuclear cell assay
- condition-description: read-out: PBMC EC50 TNF-α; compounds 1h, washed, 15 hour incubation; tumor necrosis factor-alpha level in medium; average of one to four donors
result-type: pEC50
A value of pEC50 is the negative decimal logarithm of a concentration given in moles per litre.

As a guide, the following entries are already answered.
molecule	pEC50
CCCCCCCC(=O)OCSP1(=O)OC[C@H]2O[C@@H](n3cnc4c(N)ncnc43)[C@H](F)[C@@H]2OCP(=O)(O)OC[C@H]2O[C@@H](n3cnc4c(=O)[nH]cnc43)[C@H](O1)[C@@H]2F (stereo partly drawn) [Compound 63b]	5.10
CCCCCCCCCCCCCCCCOC(=O)OCSP1(=O)OC[C@H]2O[C@@H](n3cnc4c(N)ncnc43)[C@H](F)[C@@H]2OCP(=O)(O)OC[C@H]2O[C@@H](n3cnc4c(=O)[nH]cnc43)[C@H](O1)[C@@H]2F (stereo partly drawn) [Compound 73b]	5.40
CCCCCCCCCCCC(=O)Oc1ccc(CSP2(=O)OC[C@H]3O[C@@H](n4cnc5c(N)ncnc54)[C@H](F)[C@@H]3OCP(=O)(O)OC[C@H]3O[C@@H](n4cnc5c(=O)[nH]c(N)nc54)[C@H](O2)[C@@H]3F)cc1 (single isomer, unassigned) [Compound 38a]	5.85

Form field: reported pEC50 of CCCCCCCCCCCCCC(=O)OCSP1(=O)OC[C@H]2O[C@@H](n3cnc4c(N)ncnc43)[C@H](F)[C@@H]2OCP(=O)(O)OC[C@H]2O[C@@H](n3cnc4c(=O)[nH]cnc43)[C@H](O1)[C@@H]2F (single isomer, unassigned) [Compound 68a] 6.22

Given the molecule Nc1nc2c(ncn2[C@@H]2O[C@@H]3COP(=O)(S)CO[C@H]4[C@@H](F)[C@H](n5cnc6c(N)ncnc65)O[C@@H]4COP(=O)(S)O[C@@H]2[C@@H]3F)c(=O)[nH]1 (single isomer, unassigned) [Compound 17c] , what is its reported pEC50? 4.08

What value of pEC50 has been reported for the following molecule? CCCCCCCCCCCCCCCCCCOC(=O)OCSP1(=O)OC[C@H]2O[C@@H](n3cnc4c(N)ncnc43)[C@H](F)[C@@H]2OCP(=O)(O)OC[C@H]2O[C@@H](n3cnc4c(=O)[nH]cnc43)[C@H](O1)[C@@H]2F (stereo partly drawn) [Compound 74b] 5.52

###

- Tested on: peripheral blood mononuclear cell (PBMC)
- assay-info: Peripheral blood mononuclear cell assay
- condition-description: read-out: PBMC EC50 TNF-α; compounds 1h, washed, 15 hour incubation; tumor necrosis factor-alpha level in medium; average of one to four donors
result-type: EC50
Put your answer as a value accompanied by its unit after it.

compound	EC50
CCCCCCCCCCCCCCCC(=O)OCSP1(=O)OC[C@H]2O[C@@H](n3cnc4c(N)ncnc43)[C@H](F)[C@@H]2OCP(=O)(O)OC[C@H]2O[C@@H](n3cnc4c(=O)[nH]cnc43)[C@H](O1)[C@@H]2F (single isomer, unassigned) [Compound 64a]	400 nM
CCCCCCCCCC(=O)Oc1ccc(CSP2(=O)OC[C@H]3O[C@@H](n4cnc5c(N)ncnc54)[C@H](F)[C@@H]3OCP(=O)(O)OC[C@H]3O[C@@H](n4cnc5c(=O)[nH]c(N)nc54)[C@H](O2)[C@@H]3F)cc1 (single isomer, unassigned) [Compound 35a]	1900 nM
CCCCCCCCCCCC(=O)OCOP1(=O)CO[C@H]2[C@@H](F)[C@H](n3cnc4c(N)ncnc43)O[C@@H]2COP(=O)(OCOC(=O)CCCCCCCCCCC)O[C@@H]2[C@H](F)[C@@H](CO1)O[C@H]2n1cnc2c(=O)[nH]cnc21 (single isomer, unassigned) [Compound 79b]	200 nM

Could you now look at the following compound, please?
Param item = CCCCCCCCCCCC(=O)OCOP1(=O)CO[C@H]2[C@@H](F)[C@H](n3cnc4c(N)ncnc43)O[C@@H]2COP(=O)(OCOC(=O)CCCCCCCCCCC)O[C@@H]2[C@H](F)[C@@H](CO1)O[C@H]2n1cnc2c(=O)[nH]cnc21 (single isomer, unassigned) [Compound 79c] ; retrieve measured EC50. 90 nM
